tested on: L1210 leukemia ip in BDF1 mice, survival T/C; test: NCI In Vivo Anticancer Drug Screen. Data for tumor model L1210 Leukemia (intraperitoneal) in B6D2F1 (BDF1) mice; conditions: endpoint: mean survival time; dose: 200.0 mg/kg/injection; schedule: Q04DX002 (ip); vehicle: Klucel (hydroxypropylcellulose) (HPC); higher = longer survival
Inconclusive results and toxic doses are left out.

Molecule: Cc1c(C)c(C)c(CCl)c(CCl)c1C
Target desc: L1210 leukemia ip in BDF1 mice, survival T/C
T/C: 90 % of control
//
Molecule: CN(C(=O)c1n[nH]c2ccccc12)c1ccccc1
Target desc: L1210 leukemia ip in BDF1 mice, survival T/C
T/C: 101 % of control
//
Molecule: O=C(O)CCOc1ccccc1Cl
Target desc: L1210 leukemia ip in BDF1 mice, survival T/C
T/C: 95 % of control
//
Molecule: CC1CCCCN1C(=O)c1ccccc1C(=O)O (configuration not stated)
Target desc: L1210 leukemia ip in BDF1 mice, survival T/C
T/C: 111 % of control
//
Molecule: CCOC(=O)c1cnc(N(C)CC(=O)O)[nH]c1=O
Target desc: L1210 leukemia ip in BDF1 mice, survival T/C
T/C: 94 % of control
//
Molecule: Cc1cc(C)c(NC(=O)C2CCCCC2C(=O)O)c(C)c1 (configuration not stated)
Target desc: L1210 leukemia ip in BDF1 mice, survival T/C
T/C: 92 % of control
//
Molecule: O=C(O)CO/N=C/c1ccccc1Cl
Target desc: L1210 leukemia ip in BDF1 mice, survival T/C
T/C: 98 % of control
//
Molecule: COc1ccc(F)cc1CC(N)=O
Target desc: L1210 leukemia ip in BDF1 mice, survival T/C
T/C: 97 % of control
//
Molecule: CCCCOC(=O)c1ccc(NC(=O)Nc2cc([N+](=O)[O-])ccc2F)cc1
Target desc: L1210 leukemia ip in BDF1 mice, survival T/C
T/C: 104 % of control
//
Molecule: O=C(COc1ccc(F)cc1)N(CCO)CCO
Target desc: L1210 leukemia ip in BDF1 mice, survival T/C
T/C: 92 % of control
//
Molecule: O=C(O)c1ccccc1Cc1ccccc1
Target desc: L1210 leukemia ip in BDF1 mice, survival T/C
T/C: 98 % of control
//
Molecule: COc1ccc(NC(=O)COc2ccc(C)cc2C)cc1
Target desc: L1210 leukemia ip in BDF1 mice, survival T/C
T/C: 103 % of control
//
Molecule: CCCCCC(=O)NNc1ccccc1
Target desc: L1210 leukemia ip in BDF1 mice, survival T/C
T/C: 111 % of control
//
Molecule: Nc1ccccc1SC(CC(=O)c1ccccc1)c1ccc(Cl)cc1 (configuration not stated)
Target desc: L1210 leukemia ip in BDF1 mice, survival T/C
T/C: 95 % of control
//
Molecule: CC(C)OC(=S)SCC(=O)c1ccc([N+](=O)[O-])cc1
Target desc: L1210 leukemia ip in BDF1 mice, survival T/C
T/C: 102 % of control
//
Molecule: CSc1nc2ccc([N+](=O)[O-])cc2s1
Target desc: L1210 leukemia ip in BDF1 mice, survival T/C
T/C: 97 % of control
//
Molecule: O=C(OCc1ccccc1CN1CCOCC1)c1cccc(Cl)c1
Target desc: L1210 leukemia ip in BDF1 mice, survival T/C
T/C: 92 % of control
//
Molecule: CCCCCCCCCCCCC(=O)N(CC)CC
Target desc: L1210 leukemia ip in BDF1 mice, survival T/C
T/C: 94 % of control
//
Molecule: C1CCc2c(c3c(c4c2CCCC4)CCCC3)C1
Target desc: L1210 leukemia ip in BDF1 mice, survival T/C
T/C: 93 % of control
//
Molecule: O=Nc1ccc(O)cc1
Target desc: L1210 leukemia ip in BDF1 mice, survival T/C
T/C: 103 % of control
//
Molecule: O=C1c2ccccc2C(=O)N1CC#CCN1C(=O)c2ccccc2C1=O
Target desc: L1210 leukemia ip in BDF1 mice, survival T/C
T/C: 91 % of control
//
Molecule: CCOC=NC1=C(C#N)CN(Cc2ccccc2)CC1
Target desc: L1210 leukemia ip in BDF1 mice, survival T/C
T/C: 93 % of control
//
Molecule: CN1NC(=O)CC1c1ccccc1 (configuration not stated)
Target desc: L1210 leukemia ip in BDF1 mice, survival T/C
T/C: 97 % of control
//
Molecule: COc1ccc(C)cc1NC(=O)/C=C/c1ccccc1
Target desc: L1210 leukemia ip in BDF1 mice, survival T/C
T/C: 100 % of control
//
Molecule: Cc1ccc(S(=O)(=O)N(Cc2cccc([N+](=O)[O-])c2)c2ccc(C(=O)O)cc2)cc1
Target desc: L1210 leukemia ip in BDF1 mice, survival T/C
T/C: 98 % of control
//
Molecule: c1ccc(CN2C3CCCC2CC(c2ccccc2)C3)cc1 (configuration not stated)
Target desc: L1210 leukemia ip in BDF1 mice, survival T/C
T/C: 87 % of control
//
Molecule: COc1ccc(C(C)(O)c2cc3ccccc3n2S(=O)(=O)c2ccccc2)cc1 (configuration not stated)
Target desc: L1210 leukemia ip in BDF1 mice, survival T/C
T/C: 95 % of control
